Entries annotated with measured mass density
Settings: 298.15 K; 101 kPa; Liquid; Vibrating tube method

- compound: "CCCO"
  mass density (kg/m3): 800.09
- compound: "CCO"
  mass density (kg/m3): 785.33
- compound: "CO"
  mass density (kg/m3): 786.59
- compound: "CC(C)O"
  mass density (kg/m3): 780.98

###

Conditions: 298.15 K; 101 kPa; Liquid; Sing-around technique in a fixed-path interferometer

- compound: "CO"
  unit annotation: "m/s"
  speed of sound: 1103
- compound: "CCCO"
  unit annotation: "m/s"
  speed of sound: 1207
- compound: "CC(C)O"
  unit annotation: "m/s"
  speed of sound: 1139
- compound: "CCO"
  unit annotation: "m/s"
  speed of sound: 1144

###

Experiment: refractive index (Na D-line) (dimensionless)
Conditions: 298.15 K; 101.33 kPa; Liquid; Standard Abbe refractometry
Reported refractive index values for the following compounds.

- compound: "CO [methanol]"
  refractive index: 1.32648
- compound: "CCO [ethanol]"
  refractive index: 1.35929
- compound: "CC(C)O [propan-2-ol]"
  refractive index: 1.375
- compound: "CCCn1cc[n+](C)c1.O=S(=O)([N-]S(=O)(=O)C(F)(F)F)C(F)(F)F"
  refractive index: 1.42525
- compound: "CCCO [propan-1-ol]"
  refractive index: 1.38307
